Cited source for all entries: patent US20100227853A1

# Tested on: PDE4A, PDE4B, PDE4D, PDE7A, PDE7B, PDE8A, PDE3A
# protocol-summary: Summary of PDE inhibitor profile
# Set-up: key: (1): Strong PDE4A, PDE4B inhibitor; (2): Strong PDE4A inhibitor; (3): Strong PDE4B, moderate PDE4A inhibitor; (4): Moderate PDE4A, PDE4B inhibitor; (5): Moderate PDE4B inhibitor
# measurement-context: overall classification, Table 17 footnotes
Listed here are compounds together with their documented PDE inhibitor profile (Table 17).

Example cases with answers are listed next.
Exam item: API: value(readout=PDE inhibitor profile (Table 17), system=PDE4A, PDE4B, PDE4D, PDE7A, PDE7B, PDE8A, PDE3A) for record CC(C)Cn1c2ccc(Br)cc2c2nc3ccccc3nc21
Marked response: 2015, L04 (1)

Exam item: Request: PDE inhibitor profile (Table 17), test system PDE4A, PDE4B, PDE4D, PDE7A, PDE7B, PDE8A, PDE3A, entry CCn1c2ccccc2c2nc3ccccc3nc21
Marked response: 1422, G02 (1)

Exam item: Provide value of PDE inhibitor profile (Table 17) for this record tested with PDE4A, PDE4B, PDE4D, PDE7A, PDE7B, PDE8A, PDE3A: CCCn1c2ccccc2c2nc3ccccc3nc21
Marked response: 1422, K02 (1)

Exam item: Param readout= PDE inhibitor profile (Table 17); system= PDE4A, PDE4B, PDE4D, PDE7A, PDE7B, PDE8A, PDE3A; entry= O=C(O)Cn1c2ccc(Cl)cc2c2nc3ccccc3nc21 ; returns value.
Marked response: 1429, L06 (4)

Exam item: Can you look up PDE inhibitor profile (Table 17) on PDE4A, PDE4B, PDE4D, PDE7A, PDE7B, PDE8A, PDE3A for CC(C)n1c2ccccc2c2nc3ccccc3nc21 ?
Marked response: 1422, I02 (1)

More entries:
Exam item: What reported PDE inhibitor profile (Table 17) corresponds to c1ccc(CCn2c3ccccc3c3nc4ccccc4nc32)cc1 on PDE4A, PDE4B, PDE4D, PDE7A, PDE7B, PDE8A, PDE3A?
Marked response: 2019, G03 (4)

Exam item: What value of PDE inhibitor profile (Table 17) on PDE4A, PDE4B, PDE4D, PDE7A, PDE7B, PDE8A, PDE3A does C=CCn1c2ccc(Br)cc2c2nc3ccccc3nc21 have?
Marked response: 2017, C18 (4)

----------
# assay-target: PDE7A (Homo sapiens)
# Sequence (Q13946 whole entry): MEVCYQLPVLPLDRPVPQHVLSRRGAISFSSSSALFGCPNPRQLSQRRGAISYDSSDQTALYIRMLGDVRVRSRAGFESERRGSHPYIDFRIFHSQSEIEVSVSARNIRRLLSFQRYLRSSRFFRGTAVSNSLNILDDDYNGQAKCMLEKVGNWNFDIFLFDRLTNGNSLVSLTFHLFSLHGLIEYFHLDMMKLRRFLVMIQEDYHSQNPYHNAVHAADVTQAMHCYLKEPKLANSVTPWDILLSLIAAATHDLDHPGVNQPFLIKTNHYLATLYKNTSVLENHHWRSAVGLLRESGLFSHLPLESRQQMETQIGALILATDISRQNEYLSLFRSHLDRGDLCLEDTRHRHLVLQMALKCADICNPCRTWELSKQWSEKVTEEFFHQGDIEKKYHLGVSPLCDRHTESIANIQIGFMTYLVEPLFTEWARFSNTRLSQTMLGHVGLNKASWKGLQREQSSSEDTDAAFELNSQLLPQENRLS
# protocol-summary: 5FOA growth assay in fission yeast strain expressing PDE7A
# Assay type: cell-based
# Design: targets used in the assays are full-length proteins (as opposed to simply the catalytic domain); expressed in transfected cells; host or cells: Schizosaccharomyces pombe, PDE gene integrated in place of cgs2
# measurement-context: high throughput 5FOA growth screen
# Method: PDE inhibition allows growth in 5FOA medium as measured by optical density after 48 hours incubation at 30° C. Compound BC12 and six structural analogs were tested for growth stimulation. Cells were pregrown in EMM medium [MP Biomedicals (Solon, Ohio), 3% glucose, filter-sterilized to avoid carmelization, which would introduce variability into the optical density of the medium] containing from 0 mM to 2.5 mM cAMP (or either 0.5 mM or 1.0 mM cGMP). […]
Classify: class 1 when Composite Z score, PDE7A is strictly less than 20; class 0 when Composite Z score, PDE7A is not.

Previously resolved entries follow.
Exam item: Quick check: does Cc1sc2ncnc(N(C)C)c2c1C have Composite Z score, PDE7A under 20?
Marked response: class 1

Exam item: # TODO verify Composite Z score, PDE7A < 20 strictly for this compound: COc1ccc(CCNc2ncnc3sc4c(c23)CCCC4)cc1
Marked response: class 0

Exam item: Problem: For the compound CCOC(=O)c1sc2nc(Cc3ccccc3)nc(NCCC3CCCCC3)c2c1C , is Composite Z score, PDE7A under 20?
Marked response: class 1

Exam item: Item Cc1c(C(=O)Nc2ccc(F)cc2F)sc2ncnc(N3CCC(C)CC3)c12 : Composite Z score, PDE7A beneath 20, strictly?
Marked response: class 0

Further cases:
Exam item: In the record for CCNc1nc(SCC(=O)NC(=O)NCc2ccccc2)nc2sc3c(c12)CCN(C)C3 , is Composite Z score, PDE7A less than 20?
Marked response: class 1

----------
# assay-target: PDE4D (Homo sapiens, UniProt Q08499)
# Sequence (Q08499 whole entry): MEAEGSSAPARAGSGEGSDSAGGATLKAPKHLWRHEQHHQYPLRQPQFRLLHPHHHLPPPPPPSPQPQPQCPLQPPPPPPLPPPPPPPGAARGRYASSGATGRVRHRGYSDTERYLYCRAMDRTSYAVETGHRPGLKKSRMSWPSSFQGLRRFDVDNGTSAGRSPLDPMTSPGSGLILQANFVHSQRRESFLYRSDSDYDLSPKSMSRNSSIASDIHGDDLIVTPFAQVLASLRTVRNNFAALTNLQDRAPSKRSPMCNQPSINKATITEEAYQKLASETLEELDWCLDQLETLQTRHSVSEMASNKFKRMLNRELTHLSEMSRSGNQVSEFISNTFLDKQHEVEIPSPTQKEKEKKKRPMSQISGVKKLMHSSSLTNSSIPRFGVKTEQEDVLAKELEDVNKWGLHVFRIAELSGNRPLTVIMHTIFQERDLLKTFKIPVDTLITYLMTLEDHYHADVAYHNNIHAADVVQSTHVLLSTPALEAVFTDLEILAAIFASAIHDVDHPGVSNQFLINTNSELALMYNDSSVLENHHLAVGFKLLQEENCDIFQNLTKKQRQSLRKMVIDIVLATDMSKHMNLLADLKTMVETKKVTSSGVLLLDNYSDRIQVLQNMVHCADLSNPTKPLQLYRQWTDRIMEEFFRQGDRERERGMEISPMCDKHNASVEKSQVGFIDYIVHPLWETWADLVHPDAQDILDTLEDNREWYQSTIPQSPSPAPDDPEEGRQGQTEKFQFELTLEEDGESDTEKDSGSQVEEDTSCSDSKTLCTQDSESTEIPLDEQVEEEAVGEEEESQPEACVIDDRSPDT
# protocol-summary: in vitro enzyme assay PDE4D (Table 7)
# Type: biochemical
# measurement-context: 2 micromolar compound; read-out: percent of PDE activity present, PDE4D
endpoint-name: remaining activity at 2 µM (%)
Respond with the bare value in %.

Exam item: Entry under review: CCN(CC)c1nc(C)nc2sc(C(=O)Nc3ccc(F)cc3F)c(C)c12 [Compound 58-6] . Reported remaining activity at 2 µM?
Marked response: 68

Exam item: Which measured remaining activity at 2 µM value corresponds to Cc1nc(N2CCC(C)CC2)c2c(C)c(C(=O)Nc3c(F)cc(F)cc3Br)sc2n1 [Compound 58-5] ?
Marked response: 68

Exam item: Endpoint output: remaining activity at 2 µM of Cc1c(C(=O)Nc2ccc3c(c2)OCCO3)sc2ncnc(N3CCc4ccccc4C3)c12 [Compound 58-10] . Value?
Marked response: 70

----------
# assay-target: PDE4A5 (Rattus norvegicus, UniProt P54748)
# Construct: targets used in the assays are full-length proteins (as opposed to simply the catalytic domain); expressed in transfected cells; host or cells: Schizosaccharomyces pombe, PDE gene integrated in place of cgs2
# Sequence (P54748 whole entry, the tested form may be a part): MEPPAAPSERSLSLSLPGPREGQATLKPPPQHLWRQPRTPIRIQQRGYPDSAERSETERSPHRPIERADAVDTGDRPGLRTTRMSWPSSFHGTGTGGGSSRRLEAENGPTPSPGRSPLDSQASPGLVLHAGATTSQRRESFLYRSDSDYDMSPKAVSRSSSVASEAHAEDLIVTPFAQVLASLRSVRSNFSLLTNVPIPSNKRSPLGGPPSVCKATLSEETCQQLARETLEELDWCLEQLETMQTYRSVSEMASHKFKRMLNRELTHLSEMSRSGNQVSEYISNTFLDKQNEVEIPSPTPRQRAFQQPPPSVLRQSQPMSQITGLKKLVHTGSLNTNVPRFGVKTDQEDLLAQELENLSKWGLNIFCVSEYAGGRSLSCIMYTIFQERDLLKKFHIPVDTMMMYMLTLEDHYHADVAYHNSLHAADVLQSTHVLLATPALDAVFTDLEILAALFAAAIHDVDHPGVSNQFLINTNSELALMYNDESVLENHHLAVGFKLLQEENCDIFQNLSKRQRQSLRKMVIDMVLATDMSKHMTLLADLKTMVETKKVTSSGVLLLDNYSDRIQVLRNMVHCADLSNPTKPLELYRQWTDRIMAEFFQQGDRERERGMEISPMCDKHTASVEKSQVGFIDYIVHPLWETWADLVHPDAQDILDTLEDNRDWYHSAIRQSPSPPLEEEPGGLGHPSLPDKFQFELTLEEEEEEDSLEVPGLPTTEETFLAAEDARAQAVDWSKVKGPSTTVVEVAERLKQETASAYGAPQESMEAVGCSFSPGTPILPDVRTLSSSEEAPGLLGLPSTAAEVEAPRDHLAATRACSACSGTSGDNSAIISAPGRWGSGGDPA
# protocol-summary: 5FOA growth assay in fission yeast strain expressing PDE4A5
# Type: cell-based
# measurement-context: 20 uM
1 Assay (20 uM) 4A5 overview
Respond numerically, and do not add a unit to the figure.

Use the examples below as a reference point.
Exam item: Look up 1 Assay (20 uM) 4A5: COC(=O)C1=C(C)N(c2ccccc2Cl)C(=O)/C1=C\c1cccs1
Marked response: 65.67

Exam item: What does the data say about its 1 Assay (20 uM) 4A5? Entry: COC(=O)C1=C(C)N(C2CCCCC2)C(=O)/C1=C\c1cccs1
Marked response: −0.06

More entries:
Exam item: Any idea what 1 Assay (20 uM) 4A5 was measured for N#Cc1sc2sc(C#N)c(-c3ccco3)c2c1N ?
Marked response: 2.14

----------
# assay-target: PDE4A5 (Rattus norvegicus)
# Construct: targets used in the assays are full-length proteins (as opposed to simply the catalytic domain); expressed in transfected cells; host or cells: Schizosaccharomyces pombe, PDE gene integrated in place of cgs2
# protocol-summary: 5FOA growth assay in fission yeast strain expressing PDE4A5
# Format: cell-based
# measurement-context: 20 uM; PDE 4A5
endpoint-name: 1 Assay (20 uM) 4A5
Enter a number only.

Exam item: So what does the record say about 1 Assay (20 uM) 4A5 for Cc1ccc2c(c1)CCC1CC(=O)CC[C@]21C (stereo partly drawn) ?
Marked response: 113.27

Exam item: Can you share its 1 Assay (20 uM) 4A5? I mean this molecule: COc1ccc2c(c1)[C@@]1(C)CCC[C@](C)(CO)C1CC2 (stereo partly drawn)
Marked response: 16.94

Consider the record given below.
Exam item: Reported 1 Assay (20 uM) 4A5 for Cc1ccc2c(c1)c1nc3ccccc3nc1n2C(C)C : what is it?
Marked response: 84.08

----------
Listed below: 1 Assay (20 uM) 7A values for each entry.
# assay-target: PDE7A (Homo sapiens)
# protocol-summary: 5FOA growth assay in fission yeast strain expressing PDE7A
# Type: cell-based
# Parameters: targets used in the assays are full-length proteins (as opposed to simply the catalytic domain); expressed in transfected cells; host or cells: Schizosaccharomyces pombe, PDE gene integrated in place of cgs2
# measurement-context: 20 uM; PDE 7A

Sample records with 1 Assay (20 uM) 7A:
Exam item: May I ask what 1 Assay (20 uM) 7A has been recorded for CC(C)Cn1c2ccc(Br)cc2c2nc3ccccc3nc21 ?
Marked response: −0.79 ND ND ND ND

Exam item: Given Cc1ccc2c(c1)CCC1CC(=O)CC[C@]21C (stereo partly shown) , state its recorded 1 Assay (20 uM) 7A.
Marked response: 74.45

Exam item: Consider the molecule shown here: Cc1ccc2c(c1)c1nc3ccccc3nc1n2C(C)C What is its recorded 1 Assay (20 uM) 7A?
Marked response: 0.31

Next:
Exam item: Given the molecule COc1ccc2c(c1)[C@@]1(C)CCC[C@](C)(CO)C1CC2 (stereo partly shown) , what is its reported 1 Assay (20 uM) 7A?
Marked response: 104.31

----------
# key: entry, value: Composite Z score, PDE4A1
# assay-target: PDE4A1 (Mus musculus, UniProt O89084)
# Construct: targets used in the assays are full-length proteins (as opposed to simply the catalytic domain); expressed in transfected cells; host or cells: Schizosaccharomyces pombe, PDE gene integrated in place of cgs2
# Sequence (O89084 1-610 isoform O89084-2): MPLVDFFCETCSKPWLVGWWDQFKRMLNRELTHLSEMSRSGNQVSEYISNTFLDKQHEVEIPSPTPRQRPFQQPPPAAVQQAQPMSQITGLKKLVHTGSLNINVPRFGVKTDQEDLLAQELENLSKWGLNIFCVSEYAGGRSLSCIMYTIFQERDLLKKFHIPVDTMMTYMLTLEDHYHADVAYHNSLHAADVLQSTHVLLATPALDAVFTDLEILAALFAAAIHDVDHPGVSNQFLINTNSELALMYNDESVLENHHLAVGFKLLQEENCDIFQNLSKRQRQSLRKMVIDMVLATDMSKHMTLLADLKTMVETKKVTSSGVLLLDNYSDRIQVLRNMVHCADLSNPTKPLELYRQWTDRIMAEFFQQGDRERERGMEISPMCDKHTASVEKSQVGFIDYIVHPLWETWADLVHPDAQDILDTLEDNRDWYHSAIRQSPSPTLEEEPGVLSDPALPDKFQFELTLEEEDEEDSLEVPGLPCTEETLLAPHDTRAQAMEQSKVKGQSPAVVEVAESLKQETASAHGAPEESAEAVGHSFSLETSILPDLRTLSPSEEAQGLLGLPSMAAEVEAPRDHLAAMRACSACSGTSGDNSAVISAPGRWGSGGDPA
# protocol-summary: 5FOA growth assay (high throughput screen, ED50) in fission yeast strain expressing PDE4A1
# Type: cell-based
# measurement-context: high throughput 5FOA growth screen; greater than 8.53 = statistically-significant inhibitor

Exam item: Field request: Composite Z score, PDE4A1 | item: Cc1c(C(=O)N(C)Cc2ccccc2)sc2ncnc(N3CCN(c4ccccc4)CC3)c12
Marked response: −0.629

Exam item: For Cc1nc(NCCc2ccccc2)c2c3c(sc2n1)CCCC3 , what is its reported Composite Z score, PDE4A1?
Marked response: 0.1429

Exam item: Bench note: what Composite Z score, PDE4A1 did CCCCNC(=O)c1sc2ncnc(N3CCc4ccccc4C3)c2c1C show?
Marked response: 5.4376

Exam item: Which Composite Z score, PDE4A1 reading was recorded for the compound OCCNc1ncnc2sc3c(c12)CCCC3 ?
Marked response: 2.4965

---
Exam item: Bench note: what Composite Z score, PDE4A1 did CCNc1nc(SCc2ccc(Cl)cc2)nc2sc3c(c12)CCN(C)C3 show?
Marked response: 2.3863
